Biological target: pERK1/2 (Thr202/Tyr204), PANC-1 (KRAS G121D) (Homo sapiens, UniProt P01116, G12D)
Construct: pERK1/2 HTRF read-out
Sequence (P01116 1-188 isoform P01116-2 G12D): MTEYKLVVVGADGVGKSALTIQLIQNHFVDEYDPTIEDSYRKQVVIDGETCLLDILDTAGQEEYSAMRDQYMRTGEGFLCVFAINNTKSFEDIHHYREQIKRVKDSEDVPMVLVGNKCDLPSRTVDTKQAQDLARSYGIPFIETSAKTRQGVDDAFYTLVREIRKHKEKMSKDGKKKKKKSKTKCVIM
Assay: Assay of intracellular pERK1/2 (Thr202/Tyr204) phosphorylation in PANC-1 cells (KRAS G12D)
Assay type: cell-based
Settings: pERK1/2, 2 days, read-out: PANC-1 (KRAS G12D) IC50
Metric name: IC50

// solved cases for IC50 follow
Q: Please give measured IC50 of the following entry: CC(c1cccnc1N)N1c2nc(OC[C@@]34CCCN3C[C@H](F)C4)nc3c(F)c(-c4c(C(F)(F)F)ccc5c4CCCN5)nc(c23)OC[C@@H]1C (single isomer, unassigned; diastereomer 1) [Compound 338]
A: > 100 nM

Q: Using known records, supply IC50 for CC(c1cccnc1N)N1CCOc2nc(-c3c(C(F)(F)F)ccc4[nH]ncc34)c(F)c3nc(OC[C@@]45CCCN4C[C@H](F)C5)nc1c23 (stereo partly drawn)
A: 175 nM

Now examine the next entry.
Q: Read the entry [2H]C([2H])([2H])N1CCC[C@H]1COc1nc2c3c(nc(-c4cc(N)cc(C)c4C(F)(F)F)c(F)c3n1)OCCN2C(C)c1cccnc1N (single isomer, unassigned) [Compound 96] and write its reported IC50.
A: > 100 nM
